The measurements presented in this section are drawn from paper PMC9227119.

Target: Acetylcholinesterase from Electrophorus electricus (electric eel) (AChE) (Electrophorus electricus)
Sequence (O42275 24-633): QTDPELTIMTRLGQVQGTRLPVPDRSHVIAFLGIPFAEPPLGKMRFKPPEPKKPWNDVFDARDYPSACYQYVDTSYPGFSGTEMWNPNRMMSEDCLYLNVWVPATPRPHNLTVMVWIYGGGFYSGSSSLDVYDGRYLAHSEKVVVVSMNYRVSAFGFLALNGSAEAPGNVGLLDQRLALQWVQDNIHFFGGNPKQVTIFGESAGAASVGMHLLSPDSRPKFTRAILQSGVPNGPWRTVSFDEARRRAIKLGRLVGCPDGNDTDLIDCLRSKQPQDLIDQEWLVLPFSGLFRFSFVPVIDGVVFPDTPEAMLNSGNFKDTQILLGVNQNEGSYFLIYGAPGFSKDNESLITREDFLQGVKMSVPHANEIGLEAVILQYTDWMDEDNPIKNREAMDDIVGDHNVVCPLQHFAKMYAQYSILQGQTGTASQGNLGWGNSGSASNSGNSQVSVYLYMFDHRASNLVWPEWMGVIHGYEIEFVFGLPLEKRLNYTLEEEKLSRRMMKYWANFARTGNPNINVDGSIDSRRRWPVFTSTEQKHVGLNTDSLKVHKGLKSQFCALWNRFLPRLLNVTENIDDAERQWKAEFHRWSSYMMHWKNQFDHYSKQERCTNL
Format: biochemical
Conditions: 36.6 °C, ligand amount per AChE monomer that inhibits ACh hydrolysis by 50%
attribute.measured: IC50 (ITC)

| molecule | attribute.measured | result |
| --- | --- | --- |
| CCOC(=O)c1ccc(O)cc1 [ethyl 4-hydroxybenzoate] | IC50 (ITC) | 31.38 ± 1.48 μmol/μmol AChE |
| O=C(O)c1ccccc1O [salicylic acid] | IC50 (ITC) | 6.07 ± 0.35 μmol/μmol AChE |
| COc1cc(C(=O)O)cc(OC)c1O [syringic acid] | IC50 (ITC) | 6.96 ± 0.30 μmol/μmol AChE |
| O=C(O)c1ccc(O)c(O)c1 [protocatechuic acid] | IC50 (ITC) | 6.50 ± 0.43 μmol/μmol AChE |
